target: full-length human ERα (Homo sapiens); assay: Luciferase reporter gene assay in HepG2 cells, ERα, agonist mode; conditions: HepG2 cells; mean ± s.e.m. as percentage of 10^−7 M E2
Sequence (P03372 whole entry): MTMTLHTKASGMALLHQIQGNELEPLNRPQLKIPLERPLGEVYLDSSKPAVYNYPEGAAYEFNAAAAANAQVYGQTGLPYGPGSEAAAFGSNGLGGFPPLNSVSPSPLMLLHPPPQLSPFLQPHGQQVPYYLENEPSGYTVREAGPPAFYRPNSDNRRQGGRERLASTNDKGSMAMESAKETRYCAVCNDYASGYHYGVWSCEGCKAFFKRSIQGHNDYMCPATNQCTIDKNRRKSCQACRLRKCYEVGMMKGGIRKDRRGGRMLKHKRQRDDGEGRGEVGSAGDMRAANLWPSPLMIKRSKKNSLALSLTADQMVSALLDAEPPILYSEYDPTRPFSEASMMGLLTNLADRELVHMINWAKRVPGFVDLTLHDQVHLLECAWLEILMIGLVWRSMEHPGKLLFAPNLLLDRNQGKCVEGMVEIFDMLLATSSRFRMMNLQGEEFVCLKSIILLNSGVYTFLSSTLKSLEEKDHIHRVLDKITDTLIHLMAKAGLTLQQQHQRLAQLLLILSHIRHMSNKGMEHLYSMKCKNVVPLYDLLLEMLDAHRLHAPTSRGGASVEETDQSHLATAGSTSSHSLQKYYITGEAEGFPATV
Each entry below carries its recorded Agonist mode ERα Eff (%E2).

Compound | Unit | Agonist mode ERα Eff (%E2)
CCN(c1ccccc1)S(=O)(=O)C1CC2OC1C(c1ccc(O)cc1)=C2c1ccc(O)cc1 (stereo not shown) [Compound 11i] | %E2 | 11
O=S(=O)(Nc1ccccc1Cl)C1CC2OC1C(c1ccc(O)cc1)=C2c1ccc(O)cc1 (stereo not shown) [Compound 11c] | %E2 | 81
CCN(c1ccc(Cl)cc1)S(=O)(=O)C1CC2OC1C(c1ccc(O)cc1)=C2c1ccc(O)cc1 (stereo not shown) [Compound 11l] | %E2 | 1
CCN(c1ccc(OC)cc1)S(=O)(=O)C1CC2OC1C(c1ccc(O)cc1)=C2c1ccc(O)cc1 (stereo not shown) [Compound 11j] | %E2 | 3
